- procedure-summary: Stability in human whole blood at 100 uM after 24 hrs
- Format: ADME, tissue-based
- run-parameters: read-out: Stability
quantity: remaining at 24 h, 100 µM (%)

molecule	measure-unit	remaining at 24 h, 100 µM
NS(=O)(=O)c1ccc(-n2cnc(Cl)c2-c2ccc(OCCCO[N+](=O)[O-])c(F)c2)cc1	%	64.1
CS(=O)(=O)c1ccc(-n2cnc(Cl)c2-c2ccc(OCC(CO[N+](=O)[O-])O[N+](=O)[O-])c(F)c2)cc1 (stereo not given)	%	43.6
NS(=O)(=O)c1ccc(-n2cnc(Cl)c2-c2ccc(OCCO[N+](=O)[O-])c(F)c2)cc1	%	58.8
CS(=O)(=O)c1ccc(-n2cnc(Cl)c2-c2ccc(OCCO[N+](=O)[O-])c(F)c2)cc1	%	53.3
CS(=O)(=O)c1ccc(-n2cnc(Cl)c2-c2ccc(OCCCO[N+](=O)[O-])c(F)c2)cc1	%	60.6
